Record: pIC50 reported on Acetylcholinesterase (Electrophorus electricus, UniProt O42275).
Sequence (O42275 whole entry): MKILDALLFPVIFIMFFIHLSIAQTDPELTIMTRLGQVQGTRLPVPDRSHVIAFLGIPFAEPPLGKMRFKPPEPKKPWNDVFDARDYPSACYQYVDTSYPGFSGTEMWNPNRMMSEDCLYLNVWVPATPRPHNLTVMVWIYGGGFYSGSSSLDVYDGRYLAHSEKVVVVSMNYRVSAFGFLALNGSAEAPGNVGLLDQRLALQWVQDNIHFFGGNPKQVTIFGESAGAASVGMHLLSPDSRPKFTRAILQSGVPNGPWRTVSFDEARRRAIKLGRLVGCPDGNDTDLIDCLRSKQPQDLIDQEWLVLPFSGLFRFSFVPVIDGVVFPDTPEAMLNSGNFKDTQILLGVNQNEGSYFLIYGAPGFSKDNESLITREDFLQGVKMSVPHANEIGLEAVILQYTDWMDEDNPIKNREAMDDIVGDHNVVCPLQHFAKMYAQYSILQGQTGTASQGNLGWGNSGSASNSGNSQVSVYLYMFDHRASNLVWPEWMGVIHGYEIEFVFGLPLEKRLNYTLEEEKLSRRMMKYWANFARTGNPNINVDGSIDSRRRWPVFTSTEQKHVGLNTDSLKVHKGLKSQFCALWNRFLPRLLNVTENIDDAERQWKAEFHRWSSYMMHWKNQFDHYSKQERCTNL
Here pIC50 is given on a logarithmic scale as minus log10 of the concentration in mol/L.

molecule=CC(=O)O[C@@H]1C[C@@]2(C)[C@@H]3CC[C@@H]4C(=CC[C@@H]5N=C(C(C)C)OC[C@]54C)C[C@H]3C(=O)C[C@]2(C)[C@H]1[C@H](C)N(C)C property_measured=pIC50 reported_measurement=6.42
molecule=CC(C)C(=O)N[C@H]1CC[C@H]2C[C@H]3C(=O)C[C@]4(C)[C@@H]([C@H](C)N(C)C)[C@H](O)C[C@@]4(C)[C@@H]3CC[C@H]2[C@]1(C)CN property_measured=pIC50 reported_measurement=6.54
molecule=CC(C)[C@H]1N[C@H]2CC=C3C[C@H]4C(=O)C[C@]5(C)[C@@H]([C@H](C)N(C)C)[C@H](O)C[C@@]5(C)[C@@H]4CC[C@H]3[C@]2(C)CO1 property_measured=pIC50 reported_measurement=5.62
molecule=CN[C@@H](C)[C@H]1[C@H](O)C[C@@]2(C)[C@@H]3CC[C@@H]4C(=CC[C@@H]5N=C(C(C)C)OC[C@]54C)C[C@H]3C(=O)C[C@]12C property_measured=pIC50 reported_measurement=6.97
molecule=CC(C)C1=N[C@H]2CC=C3C[C@H]4C(=O)C[C@]5(C)[C@@H]([C@H](C)N(C)C)[C@H](OC(=O)C(C)(C)C)C[C@@]5(C)[C@@H]4CC[C@H]3[C@]2(C)CO1 property_measured=pIC50 reported_measurement=6.96
molecule=CC[C@H](C)C(=O)N[C@H]1CC[C@H]2C[C@H]3C(=O)C[C@]4(C)[C@@H]([C@H](C)N(C)C)[C@H](O)C[C@@]4(C)[C@@H]3CC[C@H]2[C@]1(C)CN property_measured=pIC50 reported_measurement=5.87

Inquiry: Form: Entry = CC(C)[C@H]1N[C@H]2CC[C@]34C[C@]35C(=O)C[C@]3(C)[C@@H]([C@H](C)N(C)C)C(O)C[C@@]3(C)[C@@H]5CC[C@H]4[C@]2(C)CO1 (stereo partly specified) | System = Acetylcholinesterase (Electrophorus electricus, UniProt O42275) | pIC50 = ____
Reply text: 6.09

Inquiry: Form: Entry = CC[C@H](C)C1=N[C@H]2CC[C@]34C[C@]35C(=O)C[C@]3(C)[C@@H]([C@H](C)N(C)C)[C@H](O)C[C@@]3(C)[C@@H]5CC[C@H]4[C@]2(C)CN1 | System = Acetylcholinesterase (Electrophorus electricus, UniProt O42275) | pIC50 = ____
Reply text: 7.85

Inquiry: Form: Entry = CC(C)C1=N[C@H]2CC[C@H]3C=C4C(=O)C[C@]5(C)[C@@H]([C@H](C)N(C)C)[C@H](O)C[C@@]5(C)[C@@H]4CC[C@H]3[C@]2(C)CO1 | System = Acetylcholinesterase (Electrophorus electricus, UniProt O42275) | pIC50 = ____
Reply text: 6.96

Inquiry: Form: Entry = CC(C)C1=N[C@H]2CC[C@]34C[C@]35C(=O)C[C@]3(C)[C@@H]([C@H](C)N(C)C)[C@H](O)C[C@@]3(C)[C@@H]5CC[C@H]4[C@]2(C)CN1 | System = Acetylcholinesterase (Electrophorus electricus, UniProt O42275) | pIC50 = ____
Reply text: 7.74
